Biological target: Cyclic GMP-AMP synthase (Homo sapiens, UniProt Q8N884)
Sequence (Q8N884 whole entry): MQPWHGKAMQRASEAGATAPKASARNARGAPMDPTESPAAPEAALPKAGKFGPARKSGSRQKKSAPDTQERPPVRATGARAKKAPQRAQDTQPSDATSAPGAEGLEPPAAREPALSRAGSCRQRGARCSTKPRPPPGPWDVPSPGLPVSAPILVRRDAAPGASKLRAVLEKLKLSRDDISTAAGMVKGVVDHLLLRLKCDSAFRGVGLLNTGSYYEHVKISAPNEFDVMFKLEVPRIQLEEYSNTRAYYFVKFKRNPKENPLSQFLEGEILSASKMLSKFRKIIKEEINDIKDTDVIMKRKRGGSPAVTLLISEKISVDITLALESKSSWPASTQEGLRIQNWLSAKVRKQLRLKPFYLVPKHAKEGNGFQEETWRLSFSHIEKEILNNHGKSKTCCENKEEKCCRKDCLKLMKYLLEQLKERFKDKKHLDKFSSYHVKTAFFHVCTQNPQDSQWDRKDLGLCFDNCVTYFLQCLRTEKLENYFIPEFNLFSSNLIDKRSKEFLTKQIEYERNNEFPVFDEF
Assay: Inhibition of human (His6)-SUMO tagged cGAS expressed in Escherichia coli BL21-codonPlus(DE3)-RIL by ATP-biofluorescence assay
pIC50: −log10 of the molar value.
value.type: pIC50

smiles_structure=O=C(Nc1ccc(Cl)cn1)c1[nH]ncc1[N+](=O)[O-] reported_result=5.68
smiles_structure=COCC(=O)N1CCc2[nH]c3c(Cl)cc(Cl)cc3c2C1 reported_result=5.98

---

Assay: Cytotoxicity against human mesothelioma cells
Assay type: functional, cell-based
Conditions: Mesothelioma cell
pIC50: −log10 of the molar value.
value.type: pIC50

smiles_structure=CC(=O)c1c(C)c2cnc(Nc3ccc(N4CCNCC4)cn3)nc2n(C2CCCC2)c1=O value_type=pIC50 reported_result=6.09

---

Experiment: Cytotoxicity against MEF cells assessed as cell viability
Assay type: toxicity, cell-based
Details: mouse
pIC50: −log10 of the molar value.
value.type: pIC50

smiles_structure=O=C(Nc1ccc(O)c(NS(=O)(=O)c2ccc(F)cc2)c1)c1ccc(-c2ccccc2)cc1 value_type=pIC50 reported_result=3.89
smiles_structure=CCc1ccc(NC(=O)Nc2c[nH]c3ccccc23)cc1 value_type=pIC50 reported_result=3.96

---

Experiment: Reduction of RNA surrogate poly(I:C)-induced IFN release in mouse RAW-Lucia ISG cells
Type: functional, cell-based
value.type: IC50 (nM)

smiles_structure=CC1=C(O)C(=O)C=C2C1=CC=C1[C@@]2(C)CC[C@@]2(C)[C@@H]3C[C@](C)(C(=O)O)CC[C@]3(C)CC[C@]12C value_type=IC50 reported_result=70

---

The following compounds are listed with their measured pIC50 values.
Assay: Cytotoxicity against HFF cells assessed as cell viability
Assay type: toxicity, cell-based
Details: human
pIC50: −log10 of the molar value.
value.type: pIC50

smiles_structure=CCc1ccc(NC(=O)Nc2c[nH]c3ccccc23)cc1 reported_result=3.87
smiles_structure=O=C(Nc1ccc(O)c(NS(=O)(=O)c2ccc(F)cc2)c1)c1ccc(-c2ccccc2)cc1 reported_result=3.97

---

What follows is a collection of pIC50 values obtained with Cyclic GMP-AMP synthase (Mus musculus, UniProt Q8C6L5).
Sequence (Q8C6L5 whole entry): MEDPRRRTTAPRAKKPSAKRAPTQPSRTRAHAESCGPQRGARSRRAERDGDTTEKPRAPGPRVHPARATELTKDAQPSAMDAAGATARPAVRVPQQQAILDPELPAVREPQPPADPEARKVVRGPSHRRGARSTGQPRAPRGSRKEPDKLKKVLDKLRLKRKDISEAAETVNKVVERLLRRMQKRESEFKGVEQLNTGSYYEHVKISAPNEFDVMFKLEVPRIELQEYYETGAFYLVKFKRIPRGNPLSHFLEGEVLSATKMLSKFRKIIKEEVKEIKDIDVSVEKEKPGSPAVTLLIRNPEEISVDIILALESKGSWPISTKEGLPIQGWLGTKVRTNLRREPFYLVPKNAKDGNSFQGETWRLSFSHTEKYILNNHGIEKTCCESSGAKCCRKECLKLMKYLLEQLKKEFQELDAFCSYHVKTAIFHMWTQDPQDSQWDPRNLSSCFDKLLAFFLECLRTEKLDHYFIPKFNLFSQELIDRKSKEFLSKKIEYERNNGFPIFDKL
pIC50: −log10 of the molar value.
value.type: pIC50

smiles_structure=Cn1cc(-c2cc(Cl)c(Cl)c3[nH]c4c(c23)CN(C(=O)CO)CC4)cn1 value_type=pIC50 reported_result=6.35
smiles_structure=O=C(Nc1ccc(Cl)cn1)c1[nH]ncc1[N+](=O)[O-] value_type=pIC50 reported_result=6.52
